tested-system: GST-NOS1 (nNOS) PDZ domain (human)
protocol-summary: G assay
Catalogue of Average OD readings, one per entry.
Write the value in OD as a bare number.

Examples with their reported Average OD follow.
HSCCNRARQERLQRRRETQV (modifications not checked) [HPV-E6 #18 PL peptide]: 2.14
VPSDNIDSQGRNASINDSLL (modifications not checked) [beta-2 Adrenergic Receptor PL peptide]: 0.85
AWDDSARAAGGQGLHVTAL (modifications not checked) [LPAP PL peptide]: 0.77
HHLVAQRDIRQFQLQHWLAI (modifications not checked) [noradrenaline transporter PL peptide]: 1.08

Reported Average OD of PGQPPKVKSEFNSYSLTGYV (modifications not checked) [claudin 2 PL peptide] : 0.69

Value of measured Average OD for the entry SPQPDSTDNDDYDDISAA (modifications not checked) [CD6 PL peptide] : 0.59

Sample LAVLAYSITLVMLWSIWQYA (modifications not checked) [Serotonin receptor 3a PL peptide] ; Average OD observed: 1.02
